Give measured Plant response rating, Horseweed for each item. Keep answers brief.
system: horseweed; experiment: Test A postemergence; type: in vivo, Erigeron canadensis; conditions: 500 g ai/ha, postemergence, 10 days, visual injury, 0 to 100 scale (0 no effect, 100 complete control)
Text: […]
Reply briefly: the number, and no unit.

Given the entry "Cc1ccc(-n2cnc(CO)n2)cc1C(=O)N1C[C@H](C)Oc2c(Cl)cccc21" , report its measured Plant response rating, Horseweed.
50

Same for "Cc1cccc2c1O[C@@H](C)CN2C(=O)c1cccc(-n2cnc(COC(C)C)n2)c1"
0

Same for "Cc1cccc2c1O[C@@H](C)CN2C(=O)c1cccc(-n2cnc(C3CCC3)n2)c1"
50

Same for "CCc1ncn(-c2ccc(C)c(C(=O)N3C[C@H](C)Oc4c(Cl)cccc43)c2)n1"
70

Same for "COc1ccc(-n2cnc(C(C)(C)C)n2)cc1C(=O)N1C[C@H](C)Oc2c(Cl)cccc21"
40

Same for "C#CCOc1ccc(-n2cnc(C(C)C)n2)cc1C(=O)N1C[C@H](C)Oc2c(Cl)cccc21"
30

Same for "CCc1ncn(-c2ccc(CC)c(C(=O)N3C[C@H](C)Oc4c(Cl)cccc43)c2)n1"
30

Same for "Cc1ccc(-n2cnc(C3CC3)n2)cc1C(=O)N1C[C@H](C)Oc2c(Cl)cccc21"
30

Same for "Cc1ccc(-n2cnc(C(C)(C)C)n2)cc1C(=O)N1C[C@H](C)Oc2c(C)cccc21"
70

Same for "CCCCc1ncn(-c2cccc(C(=O)N3C[C@H](C)Oc4c(C)cccc43)c2)n1"
0

Same for "COc1cc(C(=O)N2C[C@H](C)Oc3c(Cl)cccc32)cc(-n2cncn2)c1"
0

Same for "CCc1ncn(-c2cccc(C(=O)N3C[C@H](C)Oc4c(Cl)cccc43)c2)n1"
20

Same for "Cc1ccc(-n2cnc(C3CCC3)n2)cc1C(=O)N1C[C@H](C)Oc2c(C)cccc21"
90

Same for "Cc1cccc2c1O[C@@H](C)CN2C(=O)c1cccc(-n2cnc(C(F)(F)F)n2)c1"
0

Same for "CC(C)c1ncn(-c2ccc(C#N)c(C(=O)N3C[C@H](C)Oc4c(Cl)cccc43)c2)n1"
0

Same for "CC(C)c1ncn(-c2ccc(OCC(F)(F)F)c(C(=O)N3C[C@H](C)Oc4c(Cl)cccc43)c2)n1"
0

###

Give measured Plant response rating, Rice for each item. Keep answers brief.
tested on: rice; test: Test B flooded paddy test; format: in vivo, Oryza sativa; conditions: 250 g ai/ha, Flood, 13 days, 0 to 100 scale (0 no effect, 100 complete control)
Reply briefly: the number, and no unit.

Value wanted: Plant response rating, Rice (rice) of entry Cc1cccc2c1O[C@@H](C)CN2C(=O)c1cccc(-n2cnc(C3CC3)n2)c1 [Compound 54]
30

Same for Cc1cc(C(=O)N2CC(C)Oc3c(Cl)cccc32)cc(-n2cncn2)c1 (centres unmarked) [Compound 32]
0

Same for Cc1cccc2c1O[C@@H](C)CN2C(=O)c1cccc(-n2cnc(Cl)n2)c1 [Compound 69]
0

Same for O=C(c1cccc(-n2cncn2)c1)N1CC(C(F)(F)F)Oc2c(Cl)cccc21 (centres unmarked) [Compound 59]
0

Same for C[C@H]1CN(C(=O)c2cc(-n3cncn3)ccc2C(F)(F)F)c2cccc(Cl)c2O1 [Compound 70]
0

Same for C[C@H]1CN(C(=O)c2cccc(-n3cncn3)c2)c2cccc(C(F)(F)F)c2O1 [Compound 47]
0

Same for Cc1ncn(-c2cccc(C(=O)N3C[C@H](C)Oc4c(C)cccc43)c2)n1 [Compound 51]
15

Same for Cc1cccc2c1O[C@@H](C)CN2C(=O)c1cccc(-n2cnc(C3CCCCC3)n2)c1 [Compound 82]
0

Values from patent US20260262643A1
